src = patent US12257247B2

- SYSTEM_UNDER_TEST: VAV1 (Homo sapiens, UniProt P15498+Q96SW2)
- Construct: A heterozygous VAV1 C-terminal HiBiT knock-in pool was generated at Monte Rosa Therapeutics from a clonal Jurkat cell; endogenous in cells; host or cells: Jurkat clone stably expressing LgBiT, homozygous GSPT1-G575N; heterozygous VAV1-HiBiT knock-in pool
- ASSAY_NAME: VAV1 degradation activity, VAV1-HiBiT knock-in Jurkat luminescence assay (Example A, Table 1)
- Type: cell-based
- TEST_CONTEXT: VAV1-HiBiT knock-in Jurkat cells, luminescence read at 6 and 24 hours; read-out: VAV1 DC50 (nM), class
- Procedure: Cells were plated at 10,000 cells per well using Multiflo (BioTek) or Multi Drop Combi (Thermo Fisher) in 384-well white solid bottom plates (Corning, 3570BC) in 25 ul volume in RPMI 1640 media (Thermo Fischer, 22400105) containing 10% FBS (Corning, 35-075-CV), 1% Penicillin/Streptomycin (ThermoFisher Scientific, 15140-122), and 1% Endurazine (Nano-Glo Endurazine Live Cell Substrate (Promega, N2571)). Cells were incubated for ˜16 hours at 37° C., 5% CO2. […]
READOUT_NAME: DC50

Below: 8 compounds and their reported DC50.
| COMPOUND | DC50 |
| --- | --- |
| COCCCOc1ccc(-c2cccc(C3CCC(=O)NC3=O)c2Cl)cc1 (stereo not shown) | 100 to 1000 nM |
| Cc1nc(Cc2ccc(-c3cccc(C4CCC(=O)NC4=O)c3Cl)cc2)no1 (stereo not shown) | ≤ 100 nM |
| O=C1CCC(c2cccc(-c3ccc(CN4Cc5ccncc5C4=O)cc3)c2Cl)C(=O)N1 (stereo not shown) | ≤ 100 nM |
| Cn1ccc(=O)n1Cc1ccc(-c2cccc(C3CCC(=O)NC3=O)c2Cl)cc1 (stereo not shown) | ≤ 100 nM |
| [2H]c1c([2H])c(-n2ccccc2=O)c([2H])c([2H])c1-c1cccc(C2CCC(=O)NC2=O)c1Cl (stereo not shown) | ≤ 100 nM |
| O=C1CCC(c2cccc(-c3ccc(OCCCO)cc3)c2Cl)C(=O)N1 (stereo not shown) | 100 to 1000 nM |
| O=C1CCC(c2cccc(-c3ccc(C(=O)Nc4ccon4)cc3)c2Cl)C(=O)N1 (stereo not shown) | > 1000 nM |
| CN1CCC2(CC2)N(c2ccc(-c3cccc(C4CCC(=O)NC4=O)c3Cl)cc2)C1=O (stereo not shown) | ≤ 100 nM |

Request: Entry O=C1CCC(c2cccc(-c3ccc(CCN4CCOCC4)cc3)c2Cl)C(=O)N1 (stereo not shown) has what DC50?
Result: ≤ 100 nM

Request: Query: DC50; subject: CC1CCCC(=O)N1c1ccc(-c2cccc(C3CCC(=O)NC3=O)c2Cl)cc1 (stereo not shown)
Result: ≤ 100 nM

Request: Find the recorded DC50 belonging to O=C1CCC(c2cccc(-c3ccc(C(=O)n4cccc4)cc3)c2Cl)C(=O)N1 (stereo not shown) and report it.
Result: 100 to 1000 nM

Request: Field request: DC50 | item: O=C1CCC(c2cccc(-c3ccc(N4COCCC4=O)cc3)c2Cl)C(=O)N1 (stereo not shown)
Result: ≤ 100 nM

Request: Fill blank: measured DC50 of the compound Nc1cc(-c2cccc(C3CCC(=O)NC3=O)c2Cl)ccc1Cl (stereo not shown) is ____.
Result: 100 to 1000 nM
